Test system: TNIK;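 further: KINOMEscan kinase panel screen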
Settings: concentration: 1 μM, replicates: in singlicate; n = 1
propertyName: %Inh (%)
Please give a number only; it is taken to be in %.

[Q] State its %Inh for this compound: Cc1nnc(-c2ccc3occ(-c4ccc(C(C)O)cc4)c3c2)o1 (stereo not drawn)
[A] 0

[Q] Supply measured %Inh of `O=C1Cc2cc(Nc3nc(NCc4cccc(S(=O)(=O)C(F)(F)F)c4)ncc3C(F)(F)F)ccc2N1` in your reply.
[A] 0

[Q] In one line, give reported %Inh of the entry `COc1cc2c(cc1OC[C@@H](O)CO)ncc1c3ccc(C#N)cc3[nH]c21` .
[A] 64
